experiment: Pharmacokinetics of docetaxel nanoparticles in primates; type: in vivo, non human primates; details: male, monkey, plasma; 50 mg/m2, M, 30 minute IV infusion
REPORTED ENDPOINT: Cmax (ng/mL)
Write the answer as a number in ng/mL, unit excluded.

# molecule CC(=O)O[C@@]12CO[C@@H]1C[C@H](O)[C@@]1(C)C(=O)[C@H](O)C3=C(C)[C@@H](OC(=O)[C@H](O)[C@@H](NC(=O)OC(C)(C)C)c4ccccc4)C[C@@](O)([C@@H](OC(=O)c4ccccc4)[C@H]21)C3(C)C [Conventional Docetaxel, docetaxel] ; its Cmax = 1210

* * *

experiment: Single dose pharmacokinetic study in Sprague-Dawley rats; format: in vivo; conditions: male, rat, plasma, iv, 5 mg/kg
REPORTED ENDPOINT: half-life (h)
Write the answer as a number in h, unit excluded.

# compound CC(=O)O[C@@]12CO[C@@H]1C[C@H](O)[C@@]1(C)C(=O)[C@H](O)C3=C(C)[C@@H](OC(=O)[C@H](O)[C@@H](NC(=O)OC(C)(C)C)c4ccccc4)C[C@@](O)([C@@H](OC(=O)c4ccccc4)[C@H]21)C3(C)C [Conventional Docetaxel, docetaxel] ; its half-life = 4.4
